Hello, the source for this data is PubChem BioAssay (NCI), in case you need it.

Experiment: NCI Yeast Anticancer Drug Screen. Data for the cln2 rad14 strain (AID 165);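 further: 0% = growth equal to vehicle treated cultures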
Conditions: S. cerevisiae cln2 rad14 strain, at 50.0 µM
About 79,000 compounds went through this panel and 15% of them were active in at least one assay; those are over-represented in the sample as a whole. Calls of active or inactive are those of the source. No stated cut-off is given here; in the data, active means growth inhibition above about 70%; inactive means the rest.
Labels: 1.0 (active), 0.0 (inactive)

compound	assigned-category
CCOC1Oc2ccccc2-c2nc(C)c(C#N)cc21 (stereo not given)	0.0
O=c1ccc2c([nH]1)CCCC2	0.0
OC(c1ccccc1)c1c(-c2ccccc2)[nH]c(-c2ccccc2)c1C(O)c1ccccc1 (stereo not given)	0.0
NC(CC(=O)O)C(=O)OCc1cccc(N=Nc2ccccc2)c1 (stereo not given)	0.0
COc1ccc(Cc2cn(C)cc(Cc3ccc(OC)cc3)c2=O)cc1	0.0
Nc1nc(-c2ccccc2)c(N=Nc2cc(Cl)ccc2Cl)s1	0.0
Cc1cc(Sc2ccc(Cl)cc2)nc(Sc2ccc(Cl)cc2)c1C#N	0.0
CCN(CC)C(=O)Cc1[nH][nH]c(=O)c1C(=O)N(CC)CC	0.0
CN1CCN(C2=NCCO2)CC1	0.0
CCCCOC(=O)NC(=O)c1cn(CCSCCOC(=O)NCCCCCCNC(=O)OCCSCCn2cc(C(=O)NC(=O)OCCCC)c(=O)[nH]c2=O)c(=O)[nH]c1=O	0.0
C=C1C(=O)OC2C1C(OC(=O)/C(=C/C)COC(C)=O)CC1(CO1)C1C(OC(=O)/C(=C/C)CO)C=C(C)C21 (stereo not given)	0.0
COC(=O)C1OC(n2ccc(=O)[nH]c2=O)C(OC(C)=O)C(OC(C)=O)C1OC(C)=O (stereo not given)	0.0
COc1ccc(OC)c2c3c([nH]c12)C(=O)Nc1nc(N)nc(N)c1C3	0.0
N#CC1CCCCCC1	0.0
N#CC(C#N)c1c(F)c(F)c(C(F)(F)F)c(F)c1F	0.0
CN1CNC(=O)c2n[nH]nc21	0.0
c1ccc(-c2sc(-c3ccccc3)c3c2C2CCC3C2)cc1	0.0
COc1ccc(CCNC(=O)CCc2ccccc2CO)cc1OC	0.0
O=C(NC1COB(c2cccc([N+](=O)[O-])c2)OC1c1ccc([N+](=O)[O-])cc1)C(Cl)Cl (stereo not given)	0.0
CC(C)=CC1C(C(=O)SCc2cc3c(cc2Br)OCO3)C1(C)C (stereo not given)	0.0
Oc1c(CNCc2ccccc2)cc(CNCc2ccccc2)c(O)c1CNCc1ccccc1	0.0
O=[N+]([O-])c1ccc(-c2csc3nc(-c4ccccc4)nn23)cc1	0.0
CC1(CCl)Nc2ccccc2C(=O)N1c1ccc(F)cc1 (stereo not given)	0.0
CCOc1ccc(OCC)c(C(=O)CCC(=O)Nc2ccc(Br)cc2)c1	0.0
CC(=O)OCC1OC(n2cnc3c(N)ncnc32)CC1OC(C)=O (stereo not given)	0.0
O=C(O)c1ccc(Cl)cc1C(=O)c1ccc(Cl)cc1	0.0
CCOC(=O)Cn1c(=O)c(-c2ccccc2NC(C)=O)nc2ccccc21	0.0
CCC1(C)NN=C2C(=CC=C3NNC(C)(CC)N32)n2cccc21 (stereo not given)	0.0
Cc1c(C(=N)N)oc2ccccc12	0.0
CN(C)C(=S)/N=c1\ss/c(=N\C(=S)N(C)C)n1C1CCCCC1	0.0
O=C1CC=NC(=S)N1	0.0
CC1(C(=O)O)C(=O)Oc2c1c1ccccc1c1ccccc21 (stereo not given)	0.0
N/N=C1\C(Cl)=C(Cl)c2ccccc21	0.0
CCCCN(CCCC)CC(O)c1cc(-c2c(Cl)cccc2Cl)nc2c(Cl)cc(Cl)cc12 (stereo not given)	0.0
C/C=C/C1OCCC(C)O1 (stereo not given)	0.0
N=C(N)SC1CC2CC1C1C=CCC21 (stereo not given)	0.0
O=C1c2ccccc2S[C@@H](O)[C@@H]2CCCN12	0.0
O=C(CNc1ccc2c(=S)c3ccccc3[nH]c2c1)Nc1ccccc1-c1ccccc1NC(=O)CNc1ccc2c(=S)c3ccccc3[nH]c2c1	1.0
COc1cc(C(C)O)c[n+](CCC2CNc3ccccc32)c1 (stereo not given)	0.0
Nc1[nH]n(-c2ccccc2)c(=O)c1C1c2ccccc2Sc2ccccc21	0.0

---

Experiment: NCI Yeast Anticancer Drug Screen. Data for the rad50 strain (AID 155);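 further: 0% = growth of vehicle-only cultures of the same strain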
Details: S. cerevisiae rad50 strain growth inhibition; at 50.0 µM; active compounds read high
The panel holds about 79,000 compounds, 15% with a hit somewhere; the sample as a whole holds those more often. Where a SMILES comes first, the peptide text is derived from it. [ ]: non-standard residue; d: D form. Abu = CC[CH](N)C(=O)O
Returns one of satisfied or not satisfied; satisfied when growth inhibition is >= 10%.

compound	assigned-category
Nc1nc2c(c(=O)[nH]1)CN(c1ccc(S(N)(=O)=O)cc1)CN2	satisfied
CC(=O)n1cc(CC(C)O)c(=O)[nH]c1=O (configuration not stated)	not satisfied
N#CN=C(N)NC(=O)/C=C/C=C/c1ccc(Cl)cc1	not satisfied
COC(=O)CCC(=O)NC1=C(NCc2ccccc2)C(=O)c2ccccc2C1=O	satisfied
Cc1ccc(S(=O)(=O)Nc2ccccc2C(=O)c2ccc(C)c(C)c2)cc1	not satisfied
O=c1[nH]nc(-c2ccccc2)n1/N=C/c1c(O)ccc2ccccc12	not satisfied
O=[N+]([O-])c1ccc(-c2nnn(Cc3ccco3)c2N2CCCCC2)cc1	satisfied
COc1ccc(/C=N/CCl)cc1	not satisfied
CCOC(=S)SC(=S)SC(=S)OCC	not satisfied
COc1cc(-c2cc(=O)c3cc4c(=O)cc(-c5cc(OC)c(OC)c(OC)c5)oc4cc3o2)cc(OC)c1OC	not satisfied
O=C(NCc1cccs1)OC1CC2CCC1C2 (configuration not stated)	not satisfied
C#CCN(Cc1ccc2nc(-c3ccccc3)c(N)nc2c1)c1cc(OC)c(OC)c(OC)c1	not satisfied
CCC(N)C(=O)NC(C(N)=O)C(C)C (configuration not stated) (H-[Abu]-Val-NH2; configuration not given here)	satisfied
O=C1CC2(CCCC2)C(=O)N1c1ccc(O)c(CN2CCCCC2)c1	not satisfied
COc1cc(C2C3=C(COC3=O)Oc3cc4c(cc32)OCO4)ccc1OC(C)=O (configuration not stated)	satisfied
C[N+](C)(C)CCCCCc1c2nc(c(CCCCC[N+](C)(C)C)c3ccc([nH]3)c(CCCCC[N+](C)(C)C)c3ccc([nH]3)c(CCCCC[N+](C)(C)C)c3nc1C=C3)C=C2	satisfied
COC(=O)C1C(=O)CC(C)(O)C(C(=O)OC)C1c1ccc(N(C)C)cc1 (configuration not stated)	not satisfied

---

Assay: NCI Yeast Anticancer Drug Screen. Data for the mec2-1 strain (AID 157)
Conditions: S. cerevisiae mec2-1 strain, at 50.0 µM, active compounds read high
About 79,000 compounds went through this panel and 15% of them were active in at least one assay; those are over-represented in the sample as a whole.

compound	growth inhibition [%]
C/C(=N\NC(N)=O)c1sc(-c2nc(C)c(/C(C)=N/NC(N)=O)s2)nc1C	22.8
COCC(O)CC#N (centres undefined)	4
C(=Nc1cccc2ccccc12)Nc1cccc2ccccc12	-38.7
NCCNCCCCCCCCCCCCOS(=O)(=O)O	-23.6
O=[S@]1Nc2cc(N=Nc3ccccc3)ccc2S1	16.1
Cc1cccn(C)c1=O	1.9
CC1C(=O)OC2C1CCC1(C)C=CC(=O)C(C)C21 (centres undefined)	4.95
COc1ccc2[nH]c(C(F)(F)F)cc(=O)c2c1	11.7
NCc1ccccc1	7.75

---

Assay: NCI Yeast Anticancer Drug Screen. Data for the cln2 rad14 strain (AID 165);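 further: 0% = growth equal to vehicle treated cultures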
Details: S. cerevisiae cln2 rad14 strain, at 50.0 µM, active compounds read high
This is part of a sample that, as a whole, favours compounds with a hit. Of some 79,000 tested, about 15% had one in any assay.
growth inhibition listing for selected molecules.
endpoint-name: growth inhibition (%)

molecule	measured
COc1ccc(Cl)cc1/C=C\C=N\OCC(=O)O	-43.6
N#CC(c1ccccc1)N(C(N)=O)c1ccccc1 (stereo not given)	-2.85
Cc1ccc(C2SC(N)=Nc3c2c(C)nn3C(=O)c2ccccc2O)cc1 (stereo not given)	5.65
c1ccc(N=C(N2CCCC2)N(CCN2CCCC2)c2ccccc2)cc1	1.35
Cn1c(/N=C(/N)N=C(N)N)cc(=O)n(C)c1=O	34.7

---

Quick reference: growth inhibition of the listed items.
Experiment: NCI Yeast Anticancer Drug Screen. Data for the rad50 strain (AID 155);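 further: 0% = growth of vehicle-only cultures of the same strain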
Settings: S. cerevisiae rad50 strain growth inhibition; at 50.0 µM; active compounds read high
About 79,000 compounds went through this panel and 15% of them were active in at least one assay; those are over-represented in the sample as a whole.
endpoint-name: growth inhibition (%)

compound	measured
Oc1[nH]c2ccccc2c1N=NC(=S)Nc1cccc(Cl)c1	-0.35
COc1ccc2c(c1)CCC1=C2CCC2=CC(=O)CC[C@@]21C	5.4
C/C=C(\C)C(=O)OC1C2C(C)C(=O)OC2C(O)C(C)C2C=CC(=O)C21C (stereo not given)	-21.1
COC(=O)C1OC(O[C@H]2CC[C@]3(C)[C@H]4CC=C5[C@@H]6CC(C)(C)CC[C@]6(C(=O)OC6OCC(O)C(O)C6OC6OC(C)C(OC7OCC(OC8OCC(O)C(O)C8O)C(O)C7O)C(O)C6O)[C@H](O)C[C@@]5(C)[C@]4(C)CC[C@H]3C2(C)C)C(O)C(O)C1O (stereo not given in full)	26.3
CC(=O)Nc1ccc(/C=C(\NC(=O)c2ccccc2)C(=O)NNS(=O)(=O)c2ccc(C)cc2)cc1	21.6
C=CCNC(=S)Nc1cccc(O)c1	-8.05
Clc1ccc(-c2nnc3c4ccccc4ccn23)cc1	14.5
O=C(Oc1c(Cl)cc(Cl)cc1Cl)c1ccc([N+](=O)[O-])cc1	9.2
Cc1ccc(C2=CC(=O)/C(=C\C(=O)c3ccc(Br)cc3)O2)c(C)c1	76.8
Cc1ccc(S(=O)(=O)N/N=C2\CCC3CC3CC\C2=N/NS(=O)(=O)c2ccc(C)cc2)cc1 (stereo not given)	-0.85
